Molecular target: T1, human GIPR (glucose-dependent insulinotropic polypeptide receptor) (human, UniProt P48546 22-466)
T1 sequence (looked up): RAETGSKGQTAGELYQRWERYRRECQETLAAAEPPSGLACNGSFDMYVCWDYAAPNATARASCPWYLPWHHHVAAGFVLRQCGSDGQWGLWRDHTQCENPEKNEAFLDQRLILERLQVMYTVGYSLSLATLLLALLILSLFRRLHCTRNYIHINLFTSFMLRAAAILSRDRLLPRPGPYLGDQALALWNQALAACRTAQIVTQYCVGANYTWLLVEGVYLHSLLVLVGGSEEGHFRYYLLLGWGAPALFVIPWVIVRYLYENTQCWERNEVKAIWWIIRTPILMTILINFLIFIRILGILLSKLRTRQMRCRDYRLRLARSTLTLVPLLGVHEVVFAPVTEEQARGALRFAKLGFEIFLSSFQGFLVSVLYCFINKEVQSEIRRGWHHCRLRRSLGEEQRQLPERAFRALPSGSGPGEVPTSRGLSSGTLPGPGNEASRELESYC
Test: cell-based or functional assay
Non-standard residues stand in square brackets, D forms with d. dPhe(2-F) = N[C@H](Cc1ccccc1F)C(=O)O
Please respond with reported EC50 (nMol), cAMP for every item in the list.
In your response, put the unit directly after the numeric value.

The following binders have reported results that may help.
Binder	EC50 (nMol), cAMP
Ac-[dPhe(2-F)]AEGTFISDYSIAMDKIHQQDFVNWLLAQK-NH2 (also: 1:2 TFA salt)	0.0075 nmol
Ac-[dY]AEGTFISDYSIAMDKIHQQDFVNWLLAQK-NH2 (also: 1:2 TFA salt)	0.0007 nmol

Query binder follows.
Task: Consider the binder Ac-[dY]AEGTFISDYSIAMDAIHQQDFVNWLLAQK-NH2 (also: 1:1 TFA salt) . State its measured EC50 (nMol), cAMP.
Result: 0.0005 nmol
